conditions: 303.15 K; 101 kPa; Liquid; Concentric cylinders viscometry
Property Measured: viscosity (mPa·s)

See these solved cases before continuing.
                        compound  result_value
0             CCCO [propan-1-ol]         1.716
1  CCCCCCCCCCCCCCCC [hexadecane]         2.708

A: CCCCO [butan-1-ol]
B: CCCCCCCC/C=C\CCCCCCCC(=O)OCC [ethyl (Z)-9-octadeceneoate]
Request: Consider entries A and B . Which has the numerically lower viscosity? Refer to your chosen item by its label in the answer.
Result: A

====

conditions: 308.15 K; 101 kPa; Liquid; Concentric cylinders viscometry
Property Measured: viscosity (mPa·s)

See these solved cases before continuing.
In [3]: df
Out[3]:
                                   molecule  property_measured  measure_unit  result_value
0  CCCCCCCC/C=C\CCCCCCCC(=O)OCC [ethyl (Z)-9-octadeceneoate]          viscosity         mPa·s         4.435
1                                     CCCCO          viscosity         mPa·s         1.975

P: CCCO
Q: CCCCCCCCCCCCCCCC
Request: Which shows the larger viscosity value: P or Q ? Refer to your chosen item by its label in the answer.
Result: Q
(Q: 2.432 mPa·s, P: 1.532 mPa·s)
